# Assay explanation: exposure in 28- and 91-day monkey toxicology studies
# Recorded conditions: cynomolgus monkey, plasma, oral, 375 mg/kg/day
Measured parameter: AUC (ng·h/mL)
Hi! Could you send only the number? It should be in ng·h/mL, unit omitted.

Please fill in: AUC reported for CCOCc1cnc(Cl)nc1Oc1ccc2c(ccc3sc4c(c32)NC[C@@H](C)NC4=O)n1 [Compound 1] = 9120

###

# Assay explanation: single intravenous dose pharmacokinetics in cynomolgus monkeys
# Assay type: in vivo
# Recorded conditions: cynomolgus, cynomolgus monkey, plasma; monkey, female, single IV 5 mg/kg
Measured parameter: clearance (mL/min/kg)
Hi! Could you send only the number? It should be in mL/min/kg, unit omitted.

Please fill in: clearance reported for CCOCc1cnc(Cl)nc1Oc1ccc2c(ccc3sc4c(c32)NC[C@@H](C)NC4=O)n1 = 38.3
